FYI, the data here is from PubChem BioAssay (NCI).

Property: TGI; scope: individual molecules
tested on: HT29 colon; test: NCI tumour cell line growth inhibition, 48 h

Please review the following examples before continuing.
COc1ccc(/C=C\c2cc(OC)c(OC)c(OC)c2)cc1OC(=O)c1cccc(Cn2cc(CCOC(=O)[C@H](N)Cc3cn(C)c4ccccc34)nn2)c1; > 20.9 µM
CC(=O)N1OC(C)CC1Nc1ccc(Br)cc1 (stereo unspecified); > 100 µM
CC(=O)[C@@]1(O)CC[C@H]2[C@@H]3C[C@H](C)C4=CC(=O)CC[C@]4(C)[C@H]3[C@@H](O)C[C@@]21C; > 100 µM

Form: molecule = COc1c(OC)c(OC)c2c(c1OC)c(=O)c1ccccc1n2C ; TGI = > 100 µM

Form: molecule = O=c1cc2ccccc2nn1Cc1cccc(Cl)c1 ; TGI = > 100 µM

Form: molecule = CC(C)=CCNc1ncnc2nc[nH]c12 ; TGI = > 100 µM
